kon reference
Molecular target: T1, Dimeric monkey CD48-mFc (monkey)
T1 construct: Soluble monkey CD48 with a C-terminal Fc fusion [mFc]; the whole entry is the construct
T1 chain: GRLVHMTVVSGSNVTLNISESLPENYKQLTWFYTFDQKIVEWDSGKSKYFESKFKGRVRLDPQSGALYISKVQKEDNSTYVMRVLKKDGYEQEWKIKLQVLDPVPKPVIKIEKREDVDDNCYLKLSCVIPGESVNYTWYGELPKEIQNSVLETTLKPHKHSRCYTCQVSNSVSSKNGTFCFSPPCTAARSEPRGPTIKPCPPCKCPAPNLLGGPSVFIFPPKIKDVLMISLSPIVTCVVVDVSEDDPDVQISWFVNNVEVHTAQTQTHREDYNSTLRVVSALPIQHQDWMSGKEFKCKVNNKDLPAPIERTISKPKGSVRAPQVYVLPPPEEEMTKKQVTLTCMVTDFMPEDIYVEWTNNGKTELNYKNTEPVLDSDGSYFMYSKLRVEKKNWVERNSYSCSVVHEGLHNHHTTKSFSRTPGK
Experiment: SPR (Biacore), antibody captured by anti-Fc, CD48 in solution, 25 C
Protocol: Measurements were conducted on a T100-2 BIACORE™ instrument (Biacore Life Sciences division of GE Healthcare, Piscataway, N.J.). […] The soluble CD48 was applied to the flow cell in separate injections at different concentrations, and kinetic association (kₐ) and dissociation (kd) rate constants were determined by fits to the kinetic binding data using Biacore software. […]
Report the value in M⁻¹ s⁻¹ with no unit label.

- binder: "H4H1778P (antibody, human IgG4, V domains shown, Human IgG4 Fc (H4H)) VH: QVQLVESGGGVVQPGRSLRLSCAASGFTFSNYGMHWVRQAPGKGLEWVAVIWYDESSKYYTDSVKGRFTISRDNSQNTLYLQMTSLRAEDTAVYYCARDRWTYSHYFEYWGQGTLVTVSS VL: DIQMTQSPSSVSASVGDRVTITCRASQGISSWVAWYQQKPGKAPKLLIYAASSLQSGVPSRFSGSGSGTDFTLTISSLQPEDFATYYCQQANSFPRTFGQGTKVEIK"
  assayResult: 384000

QUERY: Give the measured kon for H4H1707N (antibody, V domains shown, Human IgG4 Fc (H4H)) VH: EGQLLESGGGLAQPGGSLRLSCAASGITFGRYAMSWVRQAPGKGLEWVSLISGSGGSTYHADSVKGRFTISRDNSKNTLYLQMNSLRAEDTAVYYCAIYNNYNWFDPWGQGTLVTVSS VL: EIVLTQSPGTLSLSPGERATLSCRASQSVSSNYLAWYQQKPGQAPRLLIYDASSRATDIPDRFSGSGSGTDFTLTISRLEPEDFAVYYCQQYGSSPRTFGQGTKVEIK
RESULT: 805000

QUERY: Give the measured kon for H4H1775P (antibody, human IgG4, V domains shown, Human IgG4 Fc (H4H)) VH: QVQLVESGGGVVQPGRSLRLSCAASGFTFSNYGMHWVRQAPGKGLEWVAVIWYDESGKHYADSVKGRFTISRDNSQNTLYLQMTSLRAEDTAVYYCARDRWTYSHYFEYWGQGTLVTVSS VL: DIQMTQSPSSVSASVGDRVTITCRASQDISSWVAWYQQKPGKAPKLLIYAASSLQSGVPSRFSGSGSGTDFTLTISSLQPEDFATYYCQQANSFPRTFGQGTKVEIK
RESULT: 488000
